Listed next: entries and their corresponding log10 of concentration at 1 h.
test: Blood levels in the mouse after oral administration; format: in vivo; conditions: blood, 100 mg/kg; mouse, oral, 100 mgm./kg., 1 hr. after administration; read-out: Blood Level
The base-10 logarithm of concentration at 1 h, taken with concentration at 1 h in ng/mL, is what appears here.

Use these answered entries as a reference point.
compound="Cc1nc(C(=O)SCC2=C(C(=O)O)N3C(=O)C(NC(=O)[C@H](N)c4ccccc4)[C@H]3SC2)sc1C (stereo partly shown)" parameter_measured="log10 of concentration at 1 h" recorded_result=3.95
compound="Cc1csc(C(=O)SCC2=C(C(=O)O)N3C(=O)C(NC(=O)[C@H](N)c4ccccc4)[C@H]3SC2)n1 (stereo partly shown)" parameter_measured="log10 of concentration at 1 h" recorded_result=4.21
compound="N[C@@H](C(=O)NC1C(=O)N2C(C(=O)O)=C(CSC(=O)c3cncs3)CS[C@H]12)c1ccccc1 (stereo partly shown)" parameter_measured="log10 of concentration at 1 h" recorded_result=4.25
compound="N[C@@H](C(=O)NC1C(=O)N2C(C(=O)O)=C(CSC(=O)c3cscn3)CS[C@H]12)c1ccccc1 (stereo partly shown)" parameter_measured="log10 of concentration at 1 h" recorded_result=3.90
compound="N[C@@H](C(=O)NC1C(=O)N2C(C(=O)O)=C(CSC(=O)c3nccs3)CS[C@H]12)c1ccccc1 (stereo partly shown)" parameter_measured="log10 of concentration at 1 h" recorded_result=4.15

Query: Give recorded log10 of concentration at 1 h. Cc1nc(C(=O)SCC2=C(C(=O)O)N3C(=O)C(NC(=O)[C@H](N)c4ccccc4)[C@H]3SC2)cs1 (stereo partly shown)
Response: 3.15

Query: Give recorded log10 of concentration at 1 h. Cc1cnc(C(=O)SCC2=C(C(=O)O)N3C(=O)C(NC(=O)[C@H](N)c4ccccc4)[C@H]3SC2)s1 (stereo partly shown)
Response: 4.49
